Source listed as patent US9321756B2.

molecular target: full length recombinant Pim-2 (Homo sapiens (Human), UniProt Q9P1W9); assay: Pim enzyme assay (HTRF, phosphorylation of biotinylated-BAD (S112) peptide), Pim-2; assay type: biochemical; settings: Pim-2 enzyme assay; read-out: Pim2_IC50
Sequence (Q9P1W9 whole entry): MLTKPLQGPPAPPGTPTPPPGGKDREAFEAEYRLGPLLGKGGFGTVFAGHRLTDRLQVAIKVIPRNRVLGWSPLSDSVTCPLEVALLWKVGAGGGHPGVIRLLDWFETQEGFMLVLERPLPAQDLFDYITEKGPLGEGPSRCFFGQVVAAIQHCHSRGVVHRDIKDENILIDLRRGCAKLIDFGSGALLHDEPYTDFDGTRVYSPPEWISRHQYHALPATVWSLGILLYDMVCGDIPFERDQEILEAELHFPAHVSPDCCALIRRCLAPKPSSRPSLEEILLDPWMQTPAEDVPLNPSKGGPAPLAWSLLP
Categorize each record by its IC50 using range 1 = under 40 nM, range 2 = from 40 nM up to 300 nM, range 3 = 300 nM and over

Assign a bin to `Cc1cncc(-c2c[nH]c3ccc(-c4nnc(-c5ccccc5)s4)cc23)n1`
range 3

Into which bin does this compound go? `Nc1nnc(-c2ccc3[nH]cc(-c4cncc(NC5CCCCC5)n4)c3c2)s1`
range 1

Lab note: sort `CC(=O)Nc1ccc(CNc2nnc(-c3ccc4[nH]cc(-c5ccc(F)cc5F)c4c3)s2)cc1` into the matching IC50 band.
range 3

Exercise: read the entry `CNc1nnc(-c2ccc3[nH]cc(-c4ccccc4F)c3c2)s1` and state which class it falls under.
range 3

Assign a category based on measured IC50 for `NC(=O)c1nnc(-c2ccc3[nH]cc(-c4cccc(N5CCOCC5)n4)c3c2)s1` and give only the class name.
range 3

Which of the defined bands does the recorded IC50 of `Cc1cc(N)nc(-c2c[nH]c3ccc(-c4nnc(NC(C)(C)C)o4)cc23)n1` sit within?
range 3

Form: Item = `CSc1nnc(-c2ccc3[nH]cc(-c4cccc(N5CCOCC5)n4)c3c2)s1` ; Class = ?
range 3

Which bin, given its IC50, does `Cc1nnc(-c2ccc3[nH]cc(-c4cccc(OC(C)C)n4)c3c2)o1` occupy?
range 1

The entry to classify is `Nc1cc(-c2c[nH]c3ccc(-c4nnc(N)s4)cc23)ccn1` ; which class holds it?
range 2

Lab note: which band did `CNc1nnc(-c2ccc3[nH]cc(-c4cccc(N5CCOCC5)n4)c3c2)s1` land in?
range 2

For this compound, which bin applies? `Nc1nnc(-c2ccc3[nH]cc(-c4nccc(Oc5ccccc5)n4)c3c2)o1`
range 1

Determine which band this compound sits in: `CCCOc1cccc(-c2c[nH]c3ccc(-c4nnc(N)s4)cc23)n1`
range 1

Category of `CC(C)Nc1cncc(-c2c[nH]c3ccc(-c4nc(N)ns4)cc23)n1` :
range 2

Each compound maps to one class by IC50. Which class for `Nc1nnc(-c2ccc3[nH]cc(-c4ncccn4)c3c2)o1` ?
range 2

----------
target: full length recombinant Pim-1 (Homo sapiens (Human), UniProt P11309); assay: Pim enzyme assay (HTRF, phosphorylation of biotinylated-BAD (S112) peptide), Pim-1; format: biochemical; settings: Pim-1 enzyme assay; read-out: Pim_1_IC50
Sequence (P11309 whole entry): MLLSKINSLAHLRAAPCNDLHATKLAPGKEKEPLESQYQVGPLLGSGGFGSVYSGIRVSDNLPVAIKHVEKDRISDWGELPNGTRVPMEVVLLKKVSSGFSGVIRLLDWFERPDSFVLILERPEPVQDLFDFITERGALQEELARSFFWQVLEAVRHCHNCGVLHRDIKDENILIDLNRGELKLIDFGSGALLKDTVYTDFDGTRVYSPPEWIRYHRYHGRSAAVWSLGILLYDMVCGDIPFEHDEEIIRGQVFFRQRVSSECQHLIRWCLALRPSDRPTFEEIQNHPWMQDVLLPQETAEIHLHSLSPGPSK
Assay readout: pIC50
Convention used: pIC50 is expressed as -log10 of the molar concentration.

Record for `Nc1nnc(-c2ccc3[nH]cc(-c4cccc(N5CCCC5=O)n4)c3c2)s1` under target or system full length recombinant Pim-1 (Homo sapiens (Human), UniProt P11309): pIC50 reported as 7.74

Record `CC(C)Nc1cncc(-c2c[nH]c3ccc(-c4nc(N)no4)cc23)n1` ; system full length recombinant Pim-1 (Homo sapiens (Human), UniProt P11309); pIC50 = 8.24

I looked up CC(C)Oc1cccc(-c2c[nH]c3ccc(-c4nnc(N5CC[C@@H](N)C5)s4)cc23)n1 [Example 33, 2,2,2-trifluoroacetate] and its pIC50 for full length recombinant Pim-1 (Homo sapiens (Human), UniProt P11309) was 8.05
